Data origin, for the record: PubChem BioAssay

- experimental_protocol: S. cerevisiae RM11-1a growth modifiers, primary screen, strain RM11-1a, OD600, basal, 24 h (AID 1177);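 note: cultures grown under basal conditions with no added stressor; test concentration not given here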
- condition: OD600, 24 h, higher = more signal, called active from +8 up or from −8 down
observation_type: z-score
Answers are plain numbers.

As a guide, the following entries are already answered.
• CO[C@H]1COC(=O)[C@H](Cc2ccccc2)NC(=O)CC=C[C@@H](C)[C@H](OC)COC(=O)CC=C[C@@H]1C = -1.06
• CO[C@H]1COC(=O)[C@H](C)NC(=O)CC=C[C@@H](C)[C@H](NS(=O)(=O)c2ccc(C)cc2)COC(=O)CC=C[C@@H]1C = -0.724
• NC(=O)NCC#Cc1ccc2c(c1)[C@]1(C(=O)N2)[C@H](c2ccccc2OCCO)N2[C@H](c3ccccc3)[C@H](c3ccccc3)OC(=O)[C@H]2[C@@H]1C(=O)N1CCN(c2ncccn2)CC1 = 2.03
• COCCOC(=O)N1C(=O)[C@@]2(c3cc(C#CCCO)ccc31)[C@H](C(=O)N1CCCCCCC1)[C@H]1C(=O)O[C@H](c3ccccc3)[C@H](c3ccccc3)N1[C@@H]2c1ccc(O)cc1 = -2.75
• O=C1c2ccccc2[C@](Cc2ccccc2I)(C(=O)NCc2ccccc2)[C@H](c2ccc(CO)cc2)N1Cc1ccccc1C(F)(F)F = 0.758
• CCC1=C2CN(Cc3ccccc3Br)[C@@H]([C@@H](O)Cc3ccccc3)C2C=CCC1 (some centres not stated) = -0.177

Proceeding to the next molecule to report its z-score.
Form: molecule = CCCC=C(CCC)[C@@H](NS(=O)(=O)c1cccc(C(F)(F)F)c1)c1ccc(C(=O)OC)cc1 ; z-score = -0.279
